Listed next: entries and their corresponding Relative cAMP EC50.
# TARGET_UNDER_TEST: human glucagon receptor (human) (UniProt P47871)
# Sequence (P47871 26-477): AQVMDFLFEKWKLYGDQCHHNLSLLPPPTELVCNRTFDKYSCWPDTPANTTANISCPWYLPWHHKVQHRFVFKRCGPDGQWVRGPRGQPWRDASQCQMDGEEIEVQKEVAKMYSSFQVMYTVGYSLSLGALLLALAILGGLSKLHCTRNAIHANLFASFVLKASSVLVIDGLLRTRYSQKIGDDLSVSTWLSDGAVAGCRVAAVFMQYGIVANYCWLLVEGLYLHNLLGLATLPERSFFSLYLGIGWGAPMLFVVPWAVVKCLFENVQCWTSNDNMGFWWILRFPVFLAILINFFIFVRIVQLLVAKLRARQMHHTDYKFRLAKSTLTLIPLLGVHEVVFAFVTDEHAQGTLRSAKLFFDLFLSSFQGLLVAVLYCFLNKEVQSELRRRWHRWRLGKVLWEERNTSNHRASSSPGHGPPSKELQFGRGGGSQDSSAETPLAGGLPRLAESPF
# PROTOCOL: cell-based or functional assay
Starred links: 1 amine or outer side, 2 acyl side, 3 side chain; linkers in the order of their positions; H or OH if unused. Non-standard residues stand in square brackets, D forms with d. Groups on a side chain read outwards from the residue. No end group written: not given here. *: point of attachment. C20 diacid = O=C(O)CCCCCCCCCCCCCCCCCCC(=O)*; αMePhe(2-F) = C[C@](N)(Cc1ccccc1F)C(=O)O; γGlu = O=C(O)[C@H](CCC(=O)[*:2])N[*:1]; Orn = NCCC[C@H](N)C(=O)O; AEEA = NCCOCCOCC(=O)O; Aib = CC(C)(N)C(=O)O
ASSAY_METRIC: Relative cAMP EC50 (nM)

BINDER	TEST_VALUE
Y[Aib]QGT[αMePhe(2-F)]TSDYSKILDKIAQK([AEEA-γGlu-C20 diacid])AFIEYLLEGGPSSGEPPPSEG-NH2 [Example 311]	2.08
Y[Aib]QGT[αMePhe(2-F)]TSDYSKLLDKIAQK[Orn]FIEWLIEGGPSSGEPPPSEG-NH2 (not fully specified (residue 20); ends and bridges not checked) [Example 310]	3.52
YXQGTFTSDXSXXLDKKAQXAFIEYLIAGGPSSGEPPPSGTEE (synthetic construct; SITE 2: note = 2-Aminoisobutyric Acid; SITE 10: note = 3-(4-Pyridyl)-L-alanine; SITE 12: note = L-ornithine; SITE 13: note = alpha-methyl-leucine; SITE 17: note = Lysine is chemically modified through conjugation of the epsilon-amino group of the Lysine side chain with (gamma-Gl)) [Example 981]	3.7
YXQGTFTSDXSXXLDKKAQXAFIEYLIAGGPSSGAPPPSGSEE (synthetic construct; SITE 2: note = 2-Aminoisobutyric Acid; SITE 10: note = 3-(4-Pyridyl)-L-alanine; SITE 12: note = L-ornithine; SITE 13: note = alpha-methyl-leucine; SITE 17: note = Lysine is chemically modified through conjugation of the epsilon-amino group of the Lysine side chain with (gamma-Gl)) [Example 961]	2.96
YXQGTFTSDXSKXLDKKAQXAFIEYLIAXGESSGEPPPSGS (synthetic construct; SITE 2: note = 2-Aminoisobutyric Acid; SITE 10: note = 3-(4-Pyridyl)-L-alanine; SITE 13: note = alpha-methyl-leucine; SITE 17: note = Lysine is chemically modified through conjugation of the epsilon-amino group of the Lysine side chain with (2-[2-(2-Amino-ethoxy)-ethoxy]-acetyl)) [Example 287]	2.53
YXQGTXTSDYSIXLDKKAAXAFIEYLIETGPSSGAPPPSEG (synthetic construct; SITE 2: note = 2-Aminoisobutyric Acid; SITE 6: note = alpha-methyl-2-fluoro-L-phenylalanine; SITE 13: note = alpha-methyl-leucine; SITE 17: note = Lysine is chemically modified through conjugation of the epsilon-amino group of the Lysine side chain with (2-[2-(2-Amino-ethoxy)-et)) [Example 383]	1.27
YXQGTXTSDXSIXLDKKAQXAFIEYLEEGGPSSGAPPPSGTGE (non-natural residues; (γGlu)2-C18 diacid acyl; C-terminal amide; synthetic construct; SITE 2: note = 2-Aminoisobutyric Acid; SITE 6: note = alpha-methyl-2-fluoro-L-phenylalanine; SITE 10: note = 3-(4-Pyridyl)-L-alanine; SITE 13: note = alpha-methyl-leucine; SITE 17: note = Lysine is chemically modified through conjugation of the epsilon-amino group of the Lysine) [Example 622]	7.7

Numbers sourced from patent US20240270821A1.
